Assay: Entinostat plasma pharmacokinetics (LC-MS/MS, non-compartmental analysis)
Assay type: in vivo, human
Conditions: human, oral; all dose levels (Total, 4 and 5 mg m^−2) with CRA; plasma, Cycle 1, day 1; median (range); 18 patients
measurement.label: Tmax (min)
Numbers only here, please. The scale is min.

Item Nc1ccccc1NC(=O)c1ccc(CNC(=O)OCc2cccnc2)cc1 has what recorded Tmax? 25.2

* * *

Assay: Entinostat plasma pharmacokinetics (LC-MS/MS, non-compartmental analysis)
Assay type: in vivo, human
Conditions: human, plasma, po, 4 mg m^−2; read-out: AUC0−∝
measurement.label: AUC (ng·h/mL)
Numbers only here, please. The scale is ng·h/mL.

Item Nc1ccccc1NC(=O)c1ccc(CNC(=O)OCc2cccnc2)cc1 has what recorded AUC? 587

* * *

Assay: Entinostat plasma pharmacokinetics (LC-MS/MS, non-compartmental analysis)
Format: in vivo, human
Conditions: human, plasma, po, 4 mg m^−2; read-out: T1/2 (converted)
measurement.label: half-life
Reply with the number, then its unit.

Item Nc1ccccc1NC(=O)c1ccc(CNC(=O)OCc2cccnc2)cc1 [entinostat] has what recorded half-life? 5.4 days

* * *

Assay: Entinostat plasma pharmacokinetics (LC-MS/MS, non-compartmental analysis)
Format: in vivo, human
Conditions: human, plasma, po, 5 mg m^−2
measurement.label: Tmax (min)
Numbers only here, please. The scale is min.

Item Nc1ccccc1NC(=O)c1ccc(CNC(=O)OCc2cccnc2)cc1 has what recorded Tmax? 15

* * *

Experiment: Entinostat plasma pharmacokinetics (LC-MS/MS, non-compartmental analysis)
Assay type: in vivo, human
Settings: human, plasma, po, 4 mg m^−2
measurement.label: Cmax (ng/mL)
Numbers only here, please. The scale is ng/mL.

Item Nc1ccccc1NC(=O)c1ccc(CNC(=O)OCc2cccnc2)cc1 [entinostat] has what recorded Cmax? 114

* * *

Assay: Entinostat plasma pharmacokinetics (LC-MS/MS, non-compartmental analysis)
Format: in vivo, human
Details: human, oral; all dose levels (Total) with CRA; plasma, Cycle 1, day 1; mean±s.d.; n=13; read-out: T1/2 (terminal half-life) (converted)
measurement.label: half-life (h)
Numbers only here, please. The scale is h.

Item Nc1ccccc1NC(=O)c1ccc(CNC(=O)OCc2cccnc2)cc1 has what recorded half-life? 114

* * *

Experiment: Entinostat plasma pharmacokinetics (LC-MS/MS, non-compartmental analysis)
Format: in vivo, human
Settings: human, plasma, po, 4 mg m^−2
measurement.label: Tmax
Reply with the number, then its unit.

Item Nc1ccccc1NC(=O)c1ccc(CNC(=O)OCc2cccnc2)cc1 [entinostat] has what recorded Tmax? 30 min
